biological target: T1, SARS-COV-2 RBD (SARS-COV-2, UniProt P0DTC2 319-539); assay: ELISA, RBD coated on plate
T1 construct: also called WT RBD
ASSAY_READOUT: EC50 (ng/mL)
Give a bare numeral; the unit ng/mL is implied.

{"BINDER": "C1065 (antibody, V domains shown) VH: EVQLVESGGGLIQPGGSLRLSCAASGFTVSRNYMSWVRQAPGKGLEWVSVIYSGGSTFYADSVKGRFTISRDNSKNTLYLQMNSLRAEDTAVYYCARGLPTGEGWNYFDYWGQGTLVTVSS VL: QSALTQPASVSGSPGQSITISCTGTSSDIGGYHYVSWYQQHPGKAPKLMIYDVSNRPSGISNRFSGSKSGNTASLTISGLQAEDEADYYCSSYASSSVIFGGGTKLTVL", "EC50 [ng/mL]": 3.52}

# context switch: different binder, same EC50
For this binder ( C937 (antibody, V domains shown) VH: EVQLVESGGGLIQPGGSLRLSCAASELTVSSNYMSWVRQAPGKGLEWVSVIYPGGSTFYADSVKGRFTISRDNSKNTLYLQMNSLRAEDTAVYYCARDLGTGLFDYWGQGTLVTVSS VL: DIQLTQSPSFLSASVGDRVTITCRASQGISSYLAWYQQKPGKAPKLLIYAASTLQSGVPSRFSGSGSGTEFTLTISSLQPEDFATYFCQLLNSNPPGTFGPGTKVDIK ), measured EC50 is 0.97

The measurements presented in this section are drawn from patent US20240218057A1.
